Reference source: ChEMBL document CHEMBL4665826

- TGT: UniProtKB P00533
- Sequence (P00533 whole entry): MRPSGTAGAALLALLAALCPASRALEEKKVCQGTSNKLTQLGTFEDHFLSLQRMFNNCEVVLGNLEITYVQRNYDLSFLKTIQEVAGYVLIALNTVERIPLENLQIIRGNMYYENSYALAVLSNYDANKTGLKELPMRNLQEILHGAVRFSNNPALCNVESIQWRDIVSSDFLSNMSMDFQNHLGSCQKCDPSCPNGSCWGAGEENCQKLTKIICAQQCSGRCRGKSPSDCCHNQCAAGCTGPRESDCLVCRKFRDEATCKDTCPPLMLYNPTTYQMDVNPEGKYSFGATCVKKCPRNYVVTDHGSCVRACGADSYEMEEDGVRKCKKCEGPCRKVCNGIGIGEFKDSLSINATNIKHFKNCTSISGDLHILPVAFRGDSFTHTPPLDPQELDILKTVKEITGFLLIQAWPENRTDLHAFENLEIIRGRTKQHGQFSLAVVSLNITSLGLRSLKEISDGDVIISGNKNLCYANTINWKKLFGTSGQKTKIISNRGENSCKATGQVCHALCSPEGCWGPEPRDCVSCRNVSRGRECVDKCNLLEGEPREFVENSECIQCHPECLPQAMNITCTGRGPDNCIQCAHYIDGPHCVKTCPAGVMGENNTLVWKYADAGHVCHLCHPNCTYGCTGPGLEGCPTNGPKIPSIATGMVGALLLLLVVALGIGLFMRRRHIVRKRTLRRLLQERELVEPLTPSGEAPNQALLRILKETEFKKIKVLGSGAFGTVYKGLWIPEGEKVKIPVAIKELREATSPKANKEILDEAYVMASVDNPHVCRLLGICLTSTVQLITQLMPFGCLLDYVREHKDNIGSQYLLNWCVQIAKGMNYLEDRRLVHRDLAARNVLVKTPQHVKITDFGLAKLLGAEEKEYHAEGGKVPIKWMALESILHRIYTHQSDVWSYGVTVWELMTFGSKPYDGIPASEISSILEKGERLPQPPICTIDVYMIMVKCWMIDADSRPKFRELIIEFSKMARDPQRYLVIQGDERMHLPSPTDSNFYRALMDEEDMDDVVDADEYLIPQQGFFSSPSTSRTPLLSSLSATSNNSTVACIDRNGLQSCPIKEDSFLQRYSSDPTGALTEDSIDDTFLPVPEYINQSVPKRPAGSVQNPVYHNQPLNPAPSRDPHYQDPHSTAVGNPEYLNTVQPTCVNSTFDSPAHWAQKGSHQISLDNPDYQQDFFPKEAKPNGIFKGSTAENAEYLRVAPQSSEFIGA
- PROTOCOL DETAILS: Inhibition of EGFR in human A549 cells measured after 30 hrs by ELISA
pIC50: −log10 of the molar value.
OUTCOME MEASURE: pIC50

(A) C#Cc1cccc(Nc2ncnc3cc(OCCOC)c(OCCOC(=O)CCCCC[N+]4=C(/C=C/C=C/C=C/C=C5/N(CCCC)c6ccc(OC)cc6C5(C)C)C(C)(C)c5cc(C(F)(F)F)ccc54)cc23)c1.[Br-]
(B) C#Cc1cccc(Nc2ncnc3cc(OCCOC)c(OCCOC(=O)CCCCC[N+]4=C(/C=C/C=C/C=C/C=C5/N(CCCC)c6ccccc6C5(C)C)C(C)(C)c5cc(C(F)(F)F)ccc54)cc23)c1
Lower pIC50: A or B ? Answer by quoting the chosen item's label.
B
